Values compiled from patent US9227967B2.

# target-system: human SSAO (Homo sapiens, UniProt Q16853)
# Sequence (Q16853 29-763 limits assumed): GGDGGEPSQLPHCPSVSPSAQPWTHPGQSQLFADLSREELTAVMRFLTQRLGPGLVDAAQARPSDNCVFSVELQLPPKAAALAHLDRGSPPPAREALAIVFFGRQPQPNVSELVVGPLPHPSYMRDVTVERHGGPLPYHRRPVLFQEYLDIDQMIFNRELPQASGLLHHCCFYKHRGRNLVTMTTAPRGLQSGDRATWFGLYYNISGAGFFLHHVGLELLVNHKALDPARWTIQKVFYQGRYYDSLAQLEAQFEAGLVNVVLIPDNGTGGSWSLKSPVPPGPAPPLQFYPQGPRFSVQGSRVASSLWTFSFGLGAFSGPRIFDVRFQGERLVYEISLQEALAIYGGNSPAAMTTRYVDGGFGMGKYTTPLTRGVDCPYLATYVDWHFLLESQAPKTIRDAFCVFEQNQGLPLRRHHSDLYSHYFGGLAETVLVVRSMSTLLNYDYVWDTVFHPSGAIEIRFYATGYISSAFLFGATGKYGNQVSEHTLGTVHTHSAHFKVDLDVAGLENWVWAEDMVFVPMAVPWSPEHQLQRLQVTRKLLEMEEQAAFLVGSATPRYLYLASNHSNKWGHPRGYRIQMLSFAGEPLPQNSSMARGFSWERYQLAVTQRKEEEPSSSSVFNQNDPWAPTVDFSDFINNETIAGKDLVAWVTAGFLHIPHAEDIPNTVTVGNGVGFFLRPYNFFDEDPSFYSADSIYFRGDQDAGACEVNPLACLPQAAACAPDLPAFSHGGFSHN
# assay-method-text: SSAO enzyme inhibition assay (benzylamine substrate; HRP-coupled hydrogen peroxide detection or 14C-benzaldehyde detection)
# particulars: purified recombinantly expressed human SSAO, benzylamine as substrate, r.t.; read-out: SSAO inhibitory activity IC50
pIC50: −log10 of the molar value. Structures can show the parent of a compound that is named as a salt.
readout: pIC50

molecule: Cc1ccc(-n2nc(N3CCOCC3(C)C)c3ccncc32)cc1
target-system: human SSAO (Homo sapiens, UniProt Q16853)
readout: pIC50
measured-value: 6.30 to 7.00
--
molecule: Clc1ccc(-n2cc(CN3CCOCC3)c3ccncc32)cc1
target-system: human SSAO (Homo sapiens, UniProt Q16853)
readout: pIC50
measured-value: 5.60 to 6.30
--
molecule: Cc1cc(Cl)ccc1-n1cc(C2CCC(N)CC2)c2ccncc21 (mixture of isomers) [Compound 13, hydrochloride]
target-system: human SSAO (Homo sapiens, UniProt Q16853)
readout: pIC50
measured-value: 6.30 to 7.00
--
molecule: Fc1cc(Cl)ccc1-n1nc(C2CCOCC2)c2ccncc21
target-system: human SSAO (Homo sapiens, UniProt Q16853)
readout: pIC50
measured-value: > 7.00
--
molecule: Cc1ccc(-n2nc(C3CCOCC3)c3ccncc32)nc1
target-system: human SSAO (Homo sapiens, UniProt Q16853)
readout: pIC50
measured-value: 5.60 to 6.30
--
molecule: Fc1ccc(-n2nc(C3CCOCC3)c3ccncc32)cc1
target-system: human SSAO (Homo sapiens, UniProt Q16853)
readout: pIC50
measured-value: 6.30 to 7.00
--
molecule: Cc1ccc(-n2nc(C3COCCN3)c3ccncc32)cc1 (centres unmarked)
target-system: human SSAO (Homo sapiens, UniProt Q16853)
readout: pIC50
measured-value: 5.60 to 6.30
--
molecule: NCCC(=O)N1CCC(c2cn(-c3ccc(Cl)cc3)c3cnccc23)CC1 [Compound 17, hydrochloride]
target-system: human SSAO (Homo sapiens, UniProt Q16853)
readout: pIC50
measured-value: > 7.00
--
molecule: Clc1ccc(-n2cc(C3=CCNCC3)c3ccncc32)cc1
target-system: human SSAO (Homo sapiens, UniProt Q16853)
readout: pIC50
measured-value: 6.30 to 7.00
--
molecule: COC(=O)C1COCCN1c1nn(-c2ccc(C)cc2)c2cnccc12 (centres unmarked)
target-system: human SSAO (Homo sapiens, UniProt Q16853)
readout: pIC50
measured-value: > 7.00
--
molecule: CN1CCN(Cc2cn(-c3ccc(Cl)cc3)c3cnccc23)CC1
target-system: human SSAO (Homo sapiens, UniProt Q16853)
readout: pIC50
measured-value: 5.60 to 6.30
--
molecule: CN(C)CC(=O)N1CCC(c2cn(-c3ccc(Cl)cc3)c3cnccc23)CC1
target-system: human SSAO (Homo sapiens, UniProt Q16853)
readout: pIC50
measured-value: 6.30 to 7.00
--
molecule: OC1CCN(Cc2cn(-c3ccc(Cl)cc3)c3cnccc23)CC1
target-system: human SSAO (Homo sapiens, UniProt Q16853)
readout: pIC50
measured-value: 6.30 to 7.00
--
molecule: FC(F)c1ccc(-n2nc(C3CCOCC3)c3ccncc32)cc1
target-system: human SSAO (Homo sapiens, UniProt Q16853)
readout: pIC50
measured-value: 6.30 to 7.00
--
molecule: Clc1ccc(-n2cc(C3CCOCC3)c3ncncc32)cc1
target-system: human SSAO (Homo sapiens, UniProt Q16853)
readout: pIC50
measured-value: 6.30 to 7.00
--
molecule: Oc1cc2c(C3CCOCC3)nn(-c3ccc(Cl)cc3)c2cn1
target-system: human SSAO (Homo sapiens, UniProt Q16853)
readout: pIC50
measured-value: 6.30 to 7.00
--
molecule: Cc1ccc(-n2nc(C3CNCCO3)c3ccncc32)cc1 (centres unmarked)
target-system: human SSAO (Homo sapiens, UniProt Q16853)
readout: pIC50
measured-value: 5.60 to 6.30
--
molecule: Clc1ccc(-c2cn(C3CCNCC3)c3ccncc23)cc1Cl [Compound 6, hydrochloride]
target-system: human SSAO (Homo sapiens, UniProt Q16853)
readout: pIC50
measured-value: 5.60 to 6.30
--
molecule: COc1cncc2c1c(C1CCOCC1)nn2-c1ccc(Cl)cc1
target-system: human SSAO (Homo sapiens, UniProt Q16853)
readout: pIC50
measured-value: 5.60 to 6.30
--
molecule: OC1CCN(c2nn(-c3ccc(Cl)cc3)c3cnccc23)CC1
target-system: human SSAO (Homo sapiens, UniProt Q16853)
readout: pIC50
measured-value: > 7.00
--
molecule: Oc1cncc2c1c(C1CCOCC1)nn2-c1ccc(Cl)cc1
target-system: human SSAO (Homo sapiens, UniProt Q16853)
readout: pIC50
measured-value: 6.30 to 7.00
--
molecule: Cc1ccc(-n2nc(C3CCOCC3)c3ccncc32)c(C)c1
target-system: human SSAO (Homo sapiens, UniProt Q16853)
readout: pIC50
measured-value: 5.60 to 6.30
--
molecule: Cc1ccc(-n2nc(C3CCOCC3)c3ccncc32)c(F)c1
target-system: human SSAO (Homo sapiens, UniProt Q16853)
readout: pIC50
measured-value: 6.30 to 7.00
